target.under.test: human GLP-1 receptor (human, UniProt P43220 24-463); note: reference of the scale not given here
test.method.notes: cell-based or functional assay
// label = met if hGLP1R GTPgS % Top is not less than 70%, otherwise not met

Check if hGLP1R GTPgS % Top >= 70% (inclusive). Item: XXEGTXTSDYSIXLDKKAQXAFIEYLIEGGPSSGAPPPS (not fully specified; D-Tyr1, Aib2, αMeF6, αMeL13, K17 conjugated to (2-[2-(2-Amino-ethoxy)-ethoxy]-acetyl)2-(γ-Glu)-CO-(CH2)18-CO2H, Aib20, C-terminal amide (NH2)) [Example 335]
met

Check if hGLP1R GTPgS % Top >= 70% (inclusive). Item: XXEGTXTSDYSILLDKKAQXAFIEYLIEGGPSSGAPPPS (D-Tyr1, Aib2, αMeF6, K17 conjugated to (2-[2-(2-Amino-ethoxy)-ethoxy]-acetyl)2-(γ-Glu)-CO-(CH2)18-CO2H, Aib20, C-terminal amide (NH2)) [Example 329]
met

Check if hGLP1R GTPgS % Top >= 70% (inclusive). Item: XXEGTFTSDYSIXLDXKAQXEFIXYLIEGGPSSGAPPPS (D-Tyr1, Aib2, αMeL13, Orn16, K17 conjugated to (2-[2-(2-Amino-ethoxy)-ethoxy]-acetyl)2-(γ-Glu)-CO-(CH2)18-CO2H, Aib20, D-Glu24, C-terminal amide (NH2)) [Example 355]
not met

Check if hGLP1R GTPgS % Top >= 70% (inclusive). Item: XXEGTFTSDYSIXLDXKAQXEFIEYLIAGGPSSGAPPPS (D-Tyr1, Aib2, αMeL13, Orn16, K17 conjugated to (2-[2-(2-Amino-ethoxy)-ethoxy]-acetyl)-(γ-Glu)-CO-(CH2)18-CO2H, Aib20, C-terminal amide (NH2)) [Example 371]
not met

Check if hGLP1R GTPgS % Top >= 70% (inclusive). Item: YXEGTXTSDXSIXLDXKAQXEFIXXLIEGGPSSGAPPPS (Aib2, αMeF(2F)6, 4Pal10, αMeL13, Orn16, K17 conjugated to (2-[2-(2-Amino-ethoxy)-ethoxy]-acetyl)2-(γ-Glu)-CO-(CH2)16-CO2H, Aib20, D-Glu24, αMeY25, C-terminal amide (NH2)) [Example 4]
met

Check if hGLP1R GTPgS % Top >= 70% (inclusive). Item: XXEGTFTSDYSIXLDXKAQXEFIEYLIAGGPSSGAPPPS (D-Tyr1, Aib2, αMeL13, Orn16, K17 conjugated to (2-[2-(2-Amino-ethoxy)-ethoxy]-acetyl)2-(γ-Glu)-CO-(CH2)18-CO2H, Aib20, C-terminal amide (NH2)) [Example 349]
not met

Check if hGLP1R GTPgS % Top >= 70% (inclusive). Item: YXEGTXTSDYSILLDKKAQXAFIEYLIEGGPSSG (Aib2, αMeF(2F)6, K17 conjugated to (2-[2-(2-Amino-ethoxy)-ethoxy]-acetyl)2-(γ-Glu)-CO-(CH2)16-CO2H, Aib20, C-terminal amide (NH2)) [Example 302]
met

Check if hGLP1R GTPgS % Top >= 70% (inclusive). Item: FXEGTFTSDYSIXLDKKAQXAFIEYLIEGGPSSGAPPPS (Aib2, αMeL13, K17 conjugated to (2-[2-(2-Amino-ethoxy)-ethoxy]-acetyl)2-(γ-Glu)-CO-(CH2)18-CO2H, Aib20, C-terminal amide (NH2)) [Example 327]
met

Check if hGLP1R GTPgS % Top >= 70% (inclusive). Item: XXEGTXTSDYSIXLDKKAQXEFIEYLIAGGPSSGAPPPS (D-Tyr1, Aib2, αMeF6, αMeL13, K17 conjugated to (2-[2-(2-Amino-ethoxy)-ethoxy]-acetyl)2-(γ-Glu)-CO-(CH2)18-CO2H, Aib20, C-terminal amide (NH2)) [Example 345]
not met

Check if hGLP1R GTPgS % Top >= 70% (inclusive). Item: FXEGTFTSDYSIXLDKKAQXAFIEYLIEAGPSSGAPPPS (Aib2, αMeL13, K17 conjugated to (2-[2-(2-Amino-ethoxy)-ethoxy]-acetyl)2-(γ-Glu)-CO-(CH2)16-CO2H, Aib20, C-terminal amide (NH2)) [Example 328]
not met

Check if hGLP1R GTPgS % Top >= 70% (inclusive). Item: YXEGTFTSDYSIXLDKKAQXEFIEYLIEGGPSSG (Aib2, αMeL13, K17 conjugated to (2-[2-(2-Amino-ethoxy)-ethoxy]-acetyl)2-(γ-Glu)-CO-(CH2)16-CO2H, Aib20, C-terminal amide (NH2)) [Example 304]
met
